# key: entry, value: melting point
Express it in °C; write the number only.

- molecule: "Cl.O=C(O)CC(NC(=O)[C@@H]1CCCN(C(=O)CCC2CCNCC2)C1)c1ccccc1 (stereo partly shown)"
  metric: "melting point"
  number: 67
- molecule: "COC(=O)CCNC(=O)C1CCN(C(=O)CCC2CCN(C(=O)OC(C)(C)C)CC2)CC1"
  metric: "melting point"
  number: 79

input: What value of melting point has been reported for the following molecule? Cl.O=C(O)CCNC(=O)[C@@H]1CCCN(C(=O)CCC2CCNCC2)C1 [Example 21 (3)]
output: 84

====

metric: melting point

Check out these entries, answers already filled in.
- compound: "C[C@H](CC(=O)O)NC(=O)[C@@H]1CCCN(C(=O)CCC2CCNCC2)C1.Cl"
  melting point: "105 to 108 °C"
- compound: "COC(=O)CCNC(=O)CC1CCCN(C(=O)C=C2CCN(C(=O)OC(C)(C)C)CC2)C1 (stereo not drawn)"
  melting point: "121 °C"
- compound: "Cl.O=C(O)CCNC(=O)CC1CCCN(C(=O)C=C2CCNCC2)C1 (stereo not drawn)"
  melting point: "63 °C"
- compound: "COc1ccc(CCNC(=O)[C@H](CC(=O)O)NC(=O)[C@@H]2CCCN(C(=O)CCC3CCNCC3)C2)cc1.Cl"
  melting point: "82 °C"
- compound: "Cl.O=C(O)CCNC(=O)C1CCN(C(=O)CCC2CCNCC2)CC1"
  melting point: "63 to 65 °C"
- compound: "COC(=O)C[C@H](N)C(=O)NC1CCCN(C(=O)CCC2CCN(C(=O)OCc3ccccc3)CC2)C1.Cl (stereo partly drawn)"
  melting point: "75 °C"
- compound: "C#C[C@H](CC(=O)OCc1oc(=O)oc1C)NC(=O)[C@@H]1CCCN(C(=O)CCC2CCNCC2)C1.Cl"
  melting point: "70 °C"
- compound: "Cl.O=C(O)CCNC(=O)C1CCCN(C(=O)CCC2CCNCC2)C1 (stereo not drawn)"
  melting point: "70 to 72 °C"

input: What value of melting point has been reported for the following compound? Cl.O=C(O)CCNC(=O)CC1CCCN(C(=O)CC2CCNCC2)C1 (stereo not drawn)
output: 73 °C
